# ASSAYED_TARGET: GABA-A receptor; alpha-5/beta-3/gamma-2 (Homo sapiens, UniProt P18507+P28472+P31644)
# Sequence (P18507 whole entry): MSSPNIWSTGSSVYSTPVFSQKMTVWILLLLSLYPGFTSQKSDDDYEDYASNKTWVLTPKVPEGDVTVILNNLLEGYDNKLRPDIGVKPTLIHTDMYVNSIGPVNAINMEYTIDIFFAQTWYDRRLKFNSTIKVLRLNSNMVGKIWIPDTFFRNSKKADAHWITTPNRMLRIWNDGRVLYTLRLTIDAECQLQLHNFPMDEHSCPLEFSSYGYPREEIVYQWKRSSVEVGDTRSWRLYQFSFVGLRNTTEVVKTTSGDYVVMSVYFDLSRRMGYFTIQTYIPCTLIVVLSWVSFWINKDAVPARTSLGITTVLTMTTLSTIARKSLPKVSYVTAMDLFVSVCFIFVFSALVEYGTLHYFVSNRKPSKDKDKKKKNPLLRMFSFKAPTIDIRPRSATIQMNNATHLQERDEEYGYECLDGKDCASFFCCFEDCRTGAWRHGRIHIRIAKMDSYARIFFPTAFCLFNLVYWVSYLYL
# Sequence (P28472 whole entry): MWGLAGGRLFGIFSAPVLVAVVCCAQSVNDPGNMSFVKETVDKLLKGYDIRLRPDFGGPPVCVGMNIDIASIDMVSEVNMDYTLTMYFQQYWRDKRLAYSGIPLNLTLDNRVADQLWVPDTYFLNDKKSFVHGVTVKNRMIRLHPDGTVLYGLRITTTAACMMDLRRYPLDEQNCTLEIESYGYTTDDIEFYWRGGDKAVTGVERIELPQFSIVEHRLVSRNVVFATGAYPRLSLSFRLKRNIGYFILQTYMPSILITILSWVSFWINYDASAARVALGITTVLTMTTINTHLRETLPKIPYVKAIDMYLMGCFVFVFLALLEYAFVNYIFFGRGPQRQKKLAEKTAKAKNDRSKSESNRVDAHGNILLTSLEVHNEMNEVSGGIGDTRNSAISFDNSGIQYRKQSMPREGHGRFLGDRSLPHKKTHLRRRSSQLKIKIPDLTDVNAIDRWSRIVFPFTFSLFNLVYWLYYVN
# Sequence (P31644 whole entry): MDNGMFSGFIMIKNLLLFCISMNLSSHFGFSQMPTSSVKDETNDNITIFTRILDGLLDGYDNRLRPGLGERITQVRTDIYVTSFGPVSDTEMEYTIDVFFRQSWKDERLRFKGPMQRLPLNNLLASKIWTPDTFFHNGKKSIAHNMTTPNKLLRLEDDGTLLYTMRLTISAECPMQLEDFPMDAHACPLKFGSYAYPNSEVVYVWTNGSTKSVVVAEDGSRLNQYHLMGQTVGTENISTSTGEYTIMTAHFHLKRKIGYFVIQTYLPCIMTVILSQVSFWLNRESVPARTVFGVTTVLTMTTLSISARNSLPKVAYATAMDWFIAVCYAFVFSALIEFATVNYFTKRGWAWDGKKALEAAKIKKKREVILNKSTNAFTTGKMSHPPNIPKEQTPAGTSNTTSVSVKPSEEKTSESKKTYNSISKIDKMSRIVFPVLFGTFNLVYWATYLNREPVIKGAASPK
# ASSAY_EXPLANATION: Inhibition of [3H]Ro-151788 binding to recombinant human gamma-aminobutyric-acid A receptor alpha-5-beta-3-gamma-2 subtype expressed in L (tk-) cells
MEASUREMENT_LABEL: pKi
// pKi here means minus log10 of the molar concentration (mol/L)

Below: 5 compounds and their reported pKi.
Cn1cnc(COc2nn3c(-c4ccccc4)nnc3c3c2C2CCC3CC2)n1	8.68
c1ccc(-c2nnc3c4c(c(OCc5nccc6ccccc56)nn23)C2CCC4CC2)cc1	9.16
Cc1noc(COc2nn3c(-c4ccccc4)nnc3c3c2C2CCC3CC2)n1	7.92
O=C(Nc1ccccn1)c1nn2c(-c3ccccc3)nnc2c2c1C1CCC2CC1	7.40
N#Cc1ccc(COc2nn3c(-c4ccccc4)nnc3c3c2C2CCC3CC2)cc1	8.03

GABA-A receptor; alpha-5/beta-3/gamma-2 (Homo sapiens, UniProt P18507+P28472+P31644) assay, compound CN1CCCC(COc2nn3c(-c4ccccc4)nnc3c3c2C2CCC3CC2)C1 (stereo not drawn) , recorded pKi = 7.00

GABA-A receptor; alpha-5/beta-3/gamma-2 (Homo sapiens, UniProt P18507+P28472+P31644) assay, compound `c1ccc(-c2nnc3c4c(c(OCc5ccncc5)nn23)C2CCC4CC2)cc1` , recorded pKi = 8.33

GABA-A receptor; alpha-5/beta-3/gamma-2 (Homo sapiens, UniProt P18507+P28472+P31644) assay, compound `CCO[n+]1ccccc1Oc1nn2c(-c3ccccc3)nnc2c2c1C1CCC2CC1` , recorded pKi = 7.19

GABA-A receptor; alpha-5/beta-3/gamma-2 (Homo sapiens, UniProt P18507+P28472+P31644) assay, compound `OCc1cccc(COc2nn3c(-c4ccccc4)nnc3c3c2C2CCC3CC2)c1` , recorded pKi = 7.96
